Conditions: human gut metagenome, 24 h, 2 µM; also: call rule not given here
Parameter: Bacterial Biotransformation

1) COc1cc(NC(C)CCCN)c2ncccc2c1.O=P(O)(O)O.O=P(O)(O)O (stereo not given) [PRIMAQUINE PHOSPHATE] | Compound metabolized
2) C=CC[C@@H]1/C=C(\C)C[C@H](C)C[C@H](OC)[C@H]2O[C@@](O)(C(=O)C(=O)N3CCCC[C@H]3C(=O)O[C@H](/C(C)=C/[C@@H]3CC[C@@H](O)[C@H](OC)C3)[C@H](C)[C@@H](O)CC1=O)[C@H](C)C[C@@H]2OC.O [TACROLIMUS] | Compound metabolized
3) O=C([O-])C[C@H](O)C[C@H](O)/C=C/c1c(C2CC2)nc2ccccc2c1-c1ccc(F)cc1.O=C([O-])C[C@H](O)C[C@H](O)/C=C/c1c(C2CC2)nc2ccccc2c1-c1ccc(F)cc1.[Ca+2] [PITAVASTATIN CALCIUM] | Compound metabolized
4) C#C[C@]1(OC(C)=O)CC[C@H]2[C@@H]3CCC4=C/C(=N/O)CC[C@@H]4[C@H]3CC[C@@]21CC [NORGESTIMATE] | Compound metabolized
5) CC(C)(C)NC[C@H](O)COc1nsnc1N1CCOCC1.O=C(O)/C=C\C(=O)O [TIMOLOL MALEATE] | Compound NOT metabolized
6) CCN(CC)CCNC(=O)c1ccc(NC(C)=O)cc1 [ACECAINIDE] | Compound NOT metabolized
7) CN(C)CCOC(C)(c1ccccc1)c1ccccn1.O=C(O)CCC(=O)O (stereo not given) [DOXYLAMINE SUCCINATE] | Compound NOT metabolized
8) CC[C@H](C)C(=O)O[C@H]1CCC=C2C=C[C@H](C)[C@H](CC[C@@H]3C[C@@H](O)CC(=O)O3)[C@H]21 [MEVASTATIN] | Compound NOT metabolized
9) O=C1CN2Cc3c(ccc(Cl)c3Cl)N=C2N1 [ANAGRELIDE] | Compound NOT metabolized
10) O=C1CC2(CCCC2)CC(=O)N1CCCCN1CCN(c2ncccn2)CC1 [BUSPIRONE] | Compound metabolized
11) CN(C/C=C/C#CC(C)(C)C)Cc1cccc2ccccc12 [TERBINAFINE] | Compound NOT metabolized
12) N=C(N)NC(=O)Cc1c(Cl)cccc1Cl [GUANFACINE] | Compound NOT metabolized
13) Clc1cccc(Cl)c1N=C1NCCN1 [CLONIDINE] | Compound metabolized
14) COCCCC/C(=N\OCCN)c1ccc(C(F)(F)F)cc1.O=C(O)/C=C\C(=O)O [FLUVOXAMINE MALEATE] | Compound NOT metabolized
15) COc1cc2nc(N3CCN(C(=O)C4COc5ccccc5O4)CC3)nc(N)c2cc1OC.CS(=O)(=O)O (stereo not given) [DOXAZOSIN MESYLATE] | Compound metabolized

====

Details: human gut metagenome, 24 h, 2 µM
Parameter: Bacterial Biotransformation

1) C=CC[C@@H]1/C=C(\C)C[C@H](C)C[C@H](OC)[C@H]2O[C@@](O)(C(=O)C(=O)N3CCCC[C@H]3C(=O)O[C@H](/C(C)=C/[C@@H]3CC[C@@H](O)[C@H](OC)C3)[C@H](C)[C@@H](O)CC1=O)[C@H](C)C[C@@H]2OC.O | Compound metabolized
2) COc1cc2nc(N3CCN(C(=O)C4CCCO4)CC3)nc(N)c2cc1OC (stereo unspecified) | Compound metabolized
3) Nc1nc(NC2CC2)c2ncn([C@H]3C=C[C@@H](CO)C3)c2n1.Nc1nc(NC2CC2)c2ncn([C@H]3C=C[C@@H](CO)C3)c2n1.O=S(=O)(O)O [ABACAVIR SULFATE] | Compound metabolized
4) COc1cc(NC(C)CCCN)c2ncccc2c1.O=P(O)(O)O.O=P(O)(O)O (stereo unspecified) [PRIMAQUINE PHOSPHATE] | Compound NOT metabolized
5) CCc1oc2ccccc2c1C(=O)c1cc(Br)c(O)c(Br)c1 | Compound metabolized
6) Nc1nc(N)nc(-c2cc(Cl)ccc2Cl)n1.O=C(O)/C=C\C(=O)O [IRSOGLADINE MALEATE] | Compound NOT metabolized
